Would you mind telling me the reported selectivity ratio of each entry?
assay-details: in vitro
condition-label: monkey, Vero cells
One number for each entry.

Sample records with selectivity ratio:
compound: CCC(C)C(=O)O[C@@]12[C@H](OC(C)=O)[C@@H](C)[C@]3(O)[C@@H]4C=C(C)C(=O)[C@@H]4CC(CO)=C[C@H]3[C@@H]1C2(C)C (stereo not given in full)
measured-metric: selectivity ratio
data-value: 1.4
//
compound: CCCCCCCCC(=O)/C=C/C=C/C=C/C(=O)O[C@@]12C[C@@H](C)[C@@]3(O)[C@@H](C=C(CO)C[C@]4(O)C(=O)C(C)=C[C@@H]34)[C@@H]1C2(C)C
measured-metric: selectivity ratio
data-value: 5.9
//
compound: CC/C=C/C=C/C=C\C(=O)O[C@@H]1[C@@H](C)[C@]2(O)[C@@H]3C=C(C)C(=O)[C@@H]3CC(CO)=C[C@H]2[C@@H]2C(C)(C)[C@]12OC(=O)CCC
measured-metric: selectivity ratio
data-value: 5.1

Specify measured selectivity ratio for CCC(C)C(=O)O[C@@]12[C@H](OC(C)=O)[C@@H](C)[C@@]3(O)[C@@H](C=C(CO)C[C@]4(O)C(=O)C(C)=C[C@@H]34)[C@@H]1C2(C)C (stereo not given in full) .
41
